Where do these numbers come from? They come from paper PMC3034772.

Assay: physchem
Details: pKa
Returns one of rule met or rule not met; rule met when pKa is >= 8.

>  <compound>
CN(Cc1cnc2nc(N)nc(N)c2n1)c1ccc(C(=O)N[C@@H](CCC(=O)O)C(=O)O)cc1 [Methotrexate]

>  <group>
rule not met

$$$$
>  <compound>
CN/C(=N/CCSCc1nc[nH]c1C)NC#N [Cimetidine]

>  <group>
rule not met

$$$$
>  <compound>
Cc1cn([C@H]2C[C@H](N=[N+]=[N-])[C@@H](CO)O2)c(=O)[nH]c1=O [Zidovudine]

>  <group>
rule met

$$$$
>  <compound>
O=C1CC2(CCCC2)CC(=O)N1CCCCN1CCN(c2ncccn2)CC1 [Buspirone]

>  <group>
rule not met

$$$$

----------
Form field: log Po (one value per entry).
Conditions: PAMPA

>  <compound>
CC(C)n1c(/C=C/C(O)CC(O)CC(=O)O)c(-c2ccc(F)cc2)c2ccccc21 (stereo not shown)

>  <log Po>
−3.56

$$$$
>  <compound>
CCC(=O)C(CC(C)N(C)C)(c1ccccc1)c1ccccc1 (stereo not shown)

>  <log Po>
−2.18

$$$$
>  <compound>
NC(Cc1ccc(F)cc1)C(=O)O (stereo not shown)

>  <log Po>
−6.13

$$$$
>  <compound>
CCOC(=O)C1(c2ccccc2)CCN(C)CC1

>  <log Po>
−1.68

$$$$

----------
Settings: PAMPA
Form field: log Ppara (one value per entry).

>  <line_notation>
Clc1ccc2c(c1)C(N1CCNCC1)=Nc1ccccc1O2

>  <log Ppara>
−5.98

$$$$
>  <line_notation>
CNCCCC12CCC(c3ccccc31)c1ccccc12

>  <log Ppara>
−5.51

$$$$
>  <line_notation>
COc1ccc2c(c1)c(CC(=O)O)c(C)n2C(=O)c1ccc(Cl)cc1

>  <log Ppara>
−5.68

$$$$
>  <line_notation>
N[C@@H](Cc1ccc(N(CCCl)CCCl)cc1)C(=O)O

>  <log Ppara>
−7.71

$$$$
>  <line_notation>
CC(=O)[C@H]1CC[C@H]2[C@@H]3CCC4=CC(=O)CC[C@]4(C)[C@H]3CC[C@]12C

>  <log Ppara>
−6.20

$$$$
>  <line_notation>
CC[C@]1(O)C[C@H]2CN(CCc3c([nH]c4ccccc34)[C@@](C(=O)OC)(c3cc4c(cc3OC)N(C=O)[C@H]3[C@@](O)(C(=O)OC)[C@H](OC(C)=O)[C@]5(CC)C=CCN6CC[C@]43[C@@H]65)C2)C1

>  <log Ppara>
−7.67

$$$$
>  <line_notation>
CN(C)CCC=C1c2ccccc2CCc2ccccc21

>  <log Ppara>
−6.38

$$$$
>  <line_notation>
O=C(CCCN1CCC(O)(c2ccc(Cl)cc2)CC1)c1ccc(F)cc1

>  <log Ppara>
−4.68

$$$$

----------
Experiment: physchem

>  <compound>
CCC1(C)CC(=O)NC1=O (stereo not shown) [Ethosuximide]

>  <pKa>
9.18

$$$$
>  <compound>
CN1C[C@H](C(=O)N[C@]2(C)O[C@@]3(O)[C@@H]4CCCN4C(=O)[C@H](Cc4ccccc4)N3C2=O)C=C2c3cccc4[nH]cc(c34)C[C@H]21

>  <pKa>
9.49

$$$$
>  <compound>
CN1CCN2c3ncccc3Cc3ccccc3C2C1 (stereo not shown)

>  <pKa>
7.91

$$$$
>  <compound>
Nc1nnc(-c2cccc(Cl)c2Cl)c(N)n1

>  <pKa>
5.38

$$$$
>  <compound>
COc1ccc2c3c1O[C@H]1C[C@@H](O)C=C[C@@]31CCN(C)C2

>  <pKa>
8.62

$$$$
>  <compound>
OCCN1CCN(CCCN2c3ccccc3Sc3ccc(C(F)(F)F)cc32)CC1

>  <pKa>
7.76

$$$$
>  <compound>
CNCC[C@@H](Oc1ccccc1C)c1ccccc1

>  <pKa>
9.67

$$$$

----------
Conditions: PAMPA
Form field: log Ppara (one value per entry).
property_measured: log Ppara

>  <compound>
NNCCc1ccccc1

>  <property_measured>
log Ppara

>  <reported_value>
−6.86

$$$$
>  <compound>
CC[C@]1(O)C[C@@H]2CN(CCc3c([nH]c4ccccc34)[C@@](C(=O)OC)(c3cc4c(cc3OC)N(C)[C@H]3[C@@](O)(C(=O)OC)[C@H](OC(C)=O)[C@]5(CC)C=CCN6CC[C@]43[C@@H]65)C2)C1

>  <property_measured>
log Ppara

>  <reported_value>
−5.54

$$$$
>  <compound>
CSc1ccc2c(c1)N(CCC1CCCCN1C)c1ccccc1S2 (stereo not shown)

>  <property_measured>
log Ppara

>  <reported_value>
−6.23

$$$$
>  <compound>
CN(C)CCCN1c2ccccc2Sc2ccc(Cl)cc21

>  <property_measured>
log Ppara

>  <reported_value>
−5.96

$$$$

----------
Form field: obs–calc (log Po^in situ) (one value per entry).
Experiment: In combo PAMPA-BBB model, calculated log Po in situ
Details: no efflux inhibition

>  <molecule>
CN(C)CCC=C1c2ccccc2COc2ccccc21 [Doxepin]

>  <obs–calc (log Po^in situ)>
0.3

$$$$
>  <molecule>
CNCCCC12CCC(c3ccccc31)c1ccccc12

>  <obs–calc (log Po^in situ)>
0.2

$$$$
>  <molecule>
COc1ccc(CCN2CCC(Nc3nc4ccccc4n3Cc3ccc(F)cc3)CC2)cc1

>  <obs–calc (log Po^in situ)>
−1.3

$$$$
>  <molecule>
Clc1ccc2c(c1)C(N1CCNCC1)=Nc1ccccc1O2

>  <obs–calc (log Po^in situ)>
−0.4

$$$$
>  <molecule>
CCC1(C)CC(=O)NC1=O (stereo not drawn) [Ethosuximide]

>  <obs–calc (log Po^in situ)>
0.2

$$$$
>  <molecule>
O=C(O)c1ccccc1O

>  <obs–calc (log Po^in situ)>
0.9

$$$$

----------
Assay: Charge class Q, dominant calculated charge state at pH 7.4
Assay type: physicochemical

>  <compound>
C[C@]12CC[C@H]3[C@@H](CCC4=CC(=O)CC[C@@]43C)[C@@H]1CC[C@@H]2O [Testosterone]

>  <Q (charge class)>
0

$$$$
>  <compound>
CCCN1C[C@H](C)N([C@H](c2ccc(C(=O)N(CC)CC)cc2)c2cccc(OC)c2)C[C@H]1C [SNC121]

>  <Q (charge class)>
+

$$$$
>  <compound>
CN1CC[C@]23c4c5ccc(O)c4O[C@H]2[C@@H](O)C=C[C@H]3[C@H]1C5 [Morphine]

>  <Q (charge class)>
+

$$$$
>  <compound>
CN1C[C@H](C(=O)N[C@]2(C)O[C@@]3(O)[C@@H]4CCCN4C(=O)[C@H](Cc4ccccc4)N3C2=O)C=C2c3cccc4[nH]cc(c34)C[C@H]21 [Ergotamine]

>  <Q (charge class)>
0

$$$$
>  <compound>
COc1ccc2c3c1O[C@H]1C(=O)CC[C@@]4(O)[C@@H](C2)N(C)CC[C@]314 [Oxycodone]

>  <Q (charge class)>
+

$$$$
>  <compound>
Cn1c(=O)c2[nH]cnc2n(C)c1=O [Theophylline]

>  <Q (charge class)>
0

$$$$
>  <compound>
Oc1ccc2c3c1O[C@H]1c4[nH]c5ccccc5c4C[C@@]4(O)[C@@H](C2)N(CC2CC2)CC[C@]314 [Naltrindole]

>  <Q (charge class)>
+

$$$$
>  <compound>
CCOC(=O)C1(c2ccccc2)CCN(C)CC1 [Meperidine]

>  <Q (charge class)>
+

$$$$
>  <compound>
NC(Cc1ccc(F)cc1)C(=O)O (stereo not shown) [p-F-Phenylalanine]

>  <Q (charge class)>
±

$$$$
>  <compound>
COc1cc2c(c(OC)c1OC)-c1ccc(OC)c(=O)cc1[C@@H](NC(C)=O)CC2 [Colchicine]

>  <Q (charge class)>
0

$$$$
>  <compound>
N[C@@H](Cc1ccc(N(CCCl)CCCl)cc1)C(=O)O [Melphalan]

>  <Q (charge class)>
±

$$$$
>  <compound>
O=C(O)CCCc1ccc(N(CCCl)CCCl)cc1 [Chlorambucil]

>  <Q (charge class)>
−

$$$$
>  <compound>
C[C@H]1O[C@@H](O[C@H]2[C@@H](O)C[C@H](O[C@H]3[C@@H](O)C[C@H](O[C@H]4CC[C@@]5(C)[C@H](CC[C@@H]6[C@@H]5C[C@@H](O)[C@]5(C)[C@@H](C7=CC(=O)OC7)CC[C@]65O)C4)O[C@@H]3C)O[C@@H]2C)C[C@H](O)[C@@H]1O [Digoxin]

>  <Q (charge class)>
0

$$$$
>  <compound>
COc1cccc2c1C(=O)c1c(O)c3c(c(O)c1C2=O)C[C@@](O)(C(C)=O)C[C@@H]3O[C@H]1C[C@H](N)[C@H](O)[C@H](C)O1 [Daunomycin]

>  <Q (charge class)>
+

$$$$
>  <compound>
Cc1cc(=O)n(-c2ccccc2)n1C [Antipyrine]

>  <Q (charge class)>
0

$$$$
>  <compound>
COc1ccc(C(CN(C)C)C2(O)CCCCC2)cc1 (stereo not shown) [Venlafaxine]

>  <Q (charge class)>
+

$$$$
